Experiment: Half life of the compound in hepes buffer
Type: physicochemical
Measured half-life by item
Please answer in the form of a number followed by its unit of measurement.

# cpd-smiles, half-life
measured = [
    ("CCOc1oc(=O)c2cc(N)ccc2c1Cl", "3.5 h"),
]

Shifting focus to the compound that follows.
Asked: Please look up its half-life: COc1oc(=O)c2cc(N)ccc2c1Cl
Given back: 3.5 h

---

Test system: HEK293
Assay: Cytotoxicity against HEK293 cells overexpressing betaAPP K670N/M671L mutant at 60 uM by LDH release assay
Assay type: cell-based
Settings: human, hek293, 60 µM
readout-kind: Activity

# compound, assayed-target, Activity
measured = [
    ("COc1oc(=O)c2cc(NCCCc3ccccc3)ccc2c1Cl", "HEK293", "Non-toxic"),
    ("CCC(C)Oc1oc(=O)c2cc(N)ccc2c1Cl (configuration not stated)", "HEK293", "Toxic"),
    ("COc1oc(=O)c2cc(NCc3cccc4ccccc34)ccc2c1Cl", "HEK293", "Non-toxic"),
    ("CCCCCCNc1ccc2c(Cl)c(OC)oc(=O)c2c1", "HEK293", "Non-toxic"),
    ("COc1oc(=O)c2cc(NCCC(C)C)ccc2c1Cl", "HEK293", "Non-toxic"),
    ("COc1oc(=O)c2cc(NCc3ccccc3)ccc2c1Cl", "HEK293", "Non-toxic"),
    ("COc1ccc(CNc2ccc3c(Cl)c(OC)oc(=O)c3c2)cc1", "HEK293", "Non-toxic"),
    ("COc1oc(=O)c2cc(NCC(C)(C)C)ccc2c1Cl", "HEK293", "Toxic"),
]

Asked: Please look up its Activity: COc1oc(=O)c2cc(Nc3ccccc3)ccc2c1Cl
Given back: Toxic

Asked: Please look up its Activity: CCCCOc1oc(=O)c2cc(N)ccc2c1Cl
Given back: Toxic

Asked: Please look up its Activity: COc1oc(=O)c2cc(Nc3cccc([N+](=O)[O-])c3)ccc2c1Cl
Given back: Non-toxic

Asked: Please look up its Activity: COc1oc(=O)c2cc(NC/C=C\c3ccccc3)ccc2c1Cl
Given back: Non-toxic

// data source = ChEMBL document CHEMBL2331080
